- target system: T1, Dpo4 (DNA polymerase IV) (Sulfolobus solfataricus, UniProt Q97W02 1-352)
- T1 sequence: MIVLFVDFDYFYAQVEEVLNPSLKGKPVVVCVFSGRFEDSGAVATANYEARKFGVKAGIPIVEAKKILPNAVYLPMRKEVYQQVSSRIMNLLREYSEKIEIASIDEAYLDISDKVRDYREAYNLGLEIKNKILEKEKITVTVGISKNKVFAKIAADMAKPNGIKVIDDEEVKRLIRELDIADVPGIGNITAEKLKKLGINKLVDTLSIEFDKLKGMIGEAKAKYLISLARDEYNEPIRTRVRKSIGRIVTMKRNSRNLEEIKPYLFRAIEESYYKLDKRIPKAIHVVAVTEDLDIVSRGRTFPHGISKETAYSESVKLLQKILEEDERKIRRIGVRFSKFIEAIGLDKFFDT
- method summary: EMSA
endpoint label: pKd
Interpret pKd as the negative base-10 log of the concentration measured in mol/L.

binder	pKd
21-mer/44DDP (dsDNA, cisplatin-d(GpG) intrastrand cross-link at template G20-G21 (5' to 3' numbering; GG inferred from primer 23/24 sites)) DNA 1: GTCCCTGTTCGGGCGCCAGGA DNA 2: GATCACGAGACTAGCCTCTGGTCTCCTGGCGCCCGAACAGGGAC	8.10
26-mer/44DDP (dsDNA, cisplatin-d(GpG) intrastrand cross-link at template G20-G21) DNA 1: GTCCCTGTTCGGGCGCCAGGAGACCA DNA 2: GATCACGAGACTAGCCTCTGGTCTCCTGGCGCCCGAACAGGGAC	7.92
21-mer/44CTL (dsDNA) DNA 1: GTCCCTGTTCGGGCGCCAGGA DNA 2: GATCACGAGACTAGCCTCTGGTCTCCTGGCGCCCGAACAGGGAC	7.74

# input for lookup
Per the records, this binder ( 25-mer/44DDP (dsDNA, cisplatin-d(GpG) intrastrand cross-link at template G20-G21) DNA 1: GTCCCTGTTCGGGCGCCAGGAGACC DNA 2: GATCACGAGACTAGCCTCTGGTCTCCTGGCGCCCGAACAGGGAC ) has pKd equal to 7.77
